test: Luminescence Cell-Based Dose Retest to Confirm Inhibitors of Cancer Stem Cells. [Related pubchem assays (depositor defined):AID2717, AID2721]; type: functional; settings: Homo sapiens
Activity calls are given as the source filed them.
OBSERVATION_TYPE: AC50

Take a look at these entries with their results.
[
  {
    "COMPOUND_STRUCTURE_STRING": "CCCc1ccc(C(=O)NNc2ccc(F)cc2)cc1",
    "VALUE_MEASURED": "1.03 µM (active)"
  },
  {
    "COMPOUND_STRUCTURE_STRING": "CCn1cc(C(=O)N[C@H](C)c2ccccc2)c(=O)c2cc(F)c(N3CCN(C)CC3)cc21",
    "VALUE_MEASURED": "0.796 µM (active)"
  },
  {
    "COMPOUND_STRUCTURE_STRING": "CC(=O)c1ccc(-c2cc([C@H]3[C@H]4C=CC[C@@H](C)[C@@H]4C(=O)N3Cc3ccccc3)ccc2F)cc1",
    "VALUE_MEASURED": "5.46 µM (active)"
  },
  {
    "COMPOUND_STRUCTURE_STRING": "CC1(C)C=Cc2c(c3c(c4c(=O)c(-c5ccc(O)cc5)coc24)OC(C)(C)CC3)O1",
    "VALUE_MEASURED": "6.61 µM (active)"
  },
  {
    "COMPOUND_STRUCTURE_STRING": "N#CCSc1nc2ccccc2c2nc3ccccc3n12",
    "VALUE_MEASURED": "3.31 µM (active)"
  },
  {
    "COMPOUND_STRUCTURE_STRING": "CCCCc1ccc(N/N=C(\\C(C)=O)C(=O)Nc2ccc(NC(C)=O)cc2OC)cc1",
    "VALUE_MEASURED": "3.91 µM (active)"
  }
]

Here is the next item to consider.
The value of AC50 measured for the molecule `CC(C)(C)c1cc(C(=O)NNc2cccc(Cl)c2)n(Cc2ccccc2)n1` turned out to be 1.34 µM (active)

* * *

biological target: Alkaline phosphatase, tissue-nonspecific isozyme (Homo sapiens); test: potency against alkaline phosphatase TNAP – biochemical, luminescent, dose response, SAR follow-up (AID 1056)
Activity calls are given as the source filed them.
Field 'call' accepts True (active), False (inactive)

See these solved cases before continuing.
[
  {
    "COMPOUND_STRUCTURE_STRING": "COc1ccc(S(=O)(=O)Nc2ccc3ccccc3c2)cc1",
    "ASSIGNED_CLASS": "False"
  },
  {
    "COMPOUND_STRUCTURE_STRING": "COc1ccc(-c2n[nH]c3c2C(=O)CC(C)(C)C3)cc1",
    "ASSIGNED_CLASS": "True"
  }
]

Prompt: Recorded test call requested for `Cn1ncc2c1ncn1c(-c3ccc(Cl)cc3Cl)nnc21`
Completion: False

Prompt: // outcome(item) with item = `COc1ccc(OC)c(S(=O)(=O)Nc2ccc(O)c3ccccc23)c1`
Completion: False

Prompt: Please indicate how the test categorized `Nc1nnc(-c2ccc(Cl)cc2)[nH]1` .
Completion: True

Prompt: I'd appreciate the recorded outcome for `CC1(C)CC(=O)c2c(-c3ccc(Cl)cc3)n[nH]c2C1` from this test.
Completion: True

* * *

target: Sentrin-specific protease 7 (Homo sapiens); assay type: functional;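 further: Luminescence-based dose-response confirmation of ultra-high-throughput screening hits, measuring inhibition of SENP7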
The source made the active and inactive calls.
What IC50 was measured for each of the following?

These solved cases illustrate the format of a correct answer.
[
  {
    "MOLECULE": "COc1ccccc1N1CCN(/N=C/c2ccc([N+](=O)[O-])cc2)CC1",
    "VALUE_MEASURED": "2.17 µM (active)"
  },
  {
    "MOLECULE": "CN(CC(=O)Nc1ccc(Cl)cc1)C(=O)CNC(=O)c1ccc2ccccc2c1",
    "VALUE_MEASURED": "11.1 µM (active)"
  },
  {
    "MOLECULE": "Cc1oc2c(c1C(=O)N1CCC(C)CC1)C(=O)c1ccccc1C2=O",
    "VALUE_MEASURED": "40.6 µM (active)"
  },
  {
    "MOLECULE": "Oc1ccc(/C=C/c2ccnc3ccccc23)cc1",
    "VALUE_MEASURED": "9.49 µM (active)"
  }
]

Go through the items and report each one's IC50.
1. Clc1nc(-c2ccccn2)nc2scc(-c3ccccc3)c12
2. O=[N+]([O-])c1ccc(O)c(C2=NNC(c3ccccc3F)C2)c1 (stereo unspecified)
3. O=C(COC(=O)c1ccc([N+](=O)[O-])s1)NC(=O)NCc1ccccc1
4. Fc1ccccc1SCc1nnc(-c2ccccc2Br)o1
5. Cn1c(/C(C#N)=C/c2ccc(O)cc2)nc2ccccc21
6. O=C(Nc1ccc(Cl)c(Cl)c1)c1ccco1
7. Cc1nc2ccc(NC(=O)c3cc(Cl)ccn3)cc2s1

Completion:
3.74 µM (active)
41.6 µM (active)
8.47 µM (active)
6.47 µM (active)
12 µM (active)
5.24 µM (active)
3.62 µM (active)

* * *

molecular target: UniProtKB P49327; assay: inhibition of human FAS-TE enzyme activity – biochemical, kinetic fluorescence intensity, dose response (AID 624326); type: functional;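 further: rate of fluorescence rise from hydrolysis of a fluorogenic O-methyl fluorescein ester substrate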
Calls of active or inactive are those of the source.
Please respond with reported IC50 for every item in the list.

[
  {
    "COMPOUND": "COc1cc2ncc(S(=O)(=O)c3ccccc3)c(N3CCC4(CC3)OCCO4)c2cc1OC",
    "TEST_SYSTEM": "UniProtKB P49327",
    "VALUE_MEASURED": "1.59 µM (active)"
  }
]

For every record below, what is its IC50?
1. O=[N+]([O-])c1ccc(NCc2ccc(Cl)cc2)c2ccncc12
2. COc1ccc(N2C(=O)NC3CC2(C)Oc2ccc(Br)cc23)cc1OC (stereo unspecified)
3. CN(C)S(=O)(=O)c1cccc(NC(=O)c2cc([N+](=O)[O-])ccc2N2CCCCC2)c1
4. CC(NC(=O)COC(=O)c1cc([N+](=O)[O-])ccc1N1CCOCC1)c1ccccc1 (stereo unspecified)
5. Cc1cc(Cl)ccc1NC(=O)CCC(=O)N/N=C/c1cc([N+](=O)[O-])ccc1O
6. O=[N+]([O-])c1ccc(CSc2ccc(S(=O)(=O)N3CCOCC3)cn2)cc1

Completion:
1: 3.75 µM (active); 2: 5.33 µM (active); 3: 12.2 µM (active); 4: 2.93 µM (active); 5: 8.57 µM (active); 6: 4.09 µM (active)

Please go through the list and note IC50 for each compound.
1. CC(C)(C)c1nc2scc(-c3cccs3)c2c(=O)o1
2. O=C(NCCc1cccc(Cl)c1)c1ccc(Cl)c([N+](=O)[O-])c1
3. COc1ccc(C2(CNC(=O)c3cccc([N+](=O)[O-])c3)CCCCC2)cc1OC
4. N#Cc1cc(-c2ccccc2)nc(Oc2ccccc2)n1

Completion:
["3.42 µM (active)", "9.95 µM (active)", "10.2 µM (active)", "12.9 µM (active)"]

* * *

Record form. Attribute: IC50. Fill in for each entry.
biological target: Large T antigen (Simian virus 40); type: functional, Betapolyomavirus macacae;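 further: Confirmatory-stage PubChem screen for compounds that inhibit SV40 T antigen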
Active and inactive are the calls of the source.

Please review the following examples before continuing.
[
  {
    "MOLECULE": "O=C(O)/C=C/c1ccc(O)c(O)c1 [CAFFEIC ACID]",
    "VALUE_MEASURED": "7.3 µM (active)"
  },
  {
    "MOLECULE": "O=C1NC(=O)N(c2ccccc2)C(=O)/C1=C/C=C/c1ccco1",
    "VALUE_MEASURED": "26.5 µM (active)"
  },
  {
    "MOLECULE": "O=C(OC[C@H]1O[C@@H](OC(=O)c2cc(O)c(O)c(OC(=O)c3cc(O)c(O)c(O)c3)c2)[C@H](OC(=O)c2cc(O)c(O)c(OC(=O)c3cc(O)c(O)c(O)c3)c2)[C@@H](OC(=O)c2cc(O)c(O)c(OC(=O)c3cc(O)c(O)c(O)c3)c2)[C@@H]1OC(=O)c1cc(O)c(O)c(OC(=O)c2cc(O)c(O)c(O)c2)c1)c1cc(O)c(O)c(OC(=O)c2cc(O)c(O)c(O)c2)c1 [TANNIC ACID]",
    "VALUE_MEASURED": "< 0.16 µM (active)"
  }
]

Report IC50 for every entry below.
1. COc1ccc(-n2c(=O)c3c4c(sc3n3c(=S)[nH]nc23)CCC4)cc1
2. CCOc1ccc(NC(=O)Cn2sc3nc(C)cc(C)c3c2=O)cc1
3. CC(Cc1ccccc1Sc1ccc(O)cc1)N(C)C (configuration not stated)

Completion:
1. 20.4 µM (active)
2. > 100 µM (active)
3. 71.9 µM (active)

Entry O=C(O)C1OC(Oc2c(-c3ccc(O)c(O)c3)oc3cc(O)cc(O)c3c2=O)C(O)C(O)C1O (configuration not stated) ; IC50 = 9.8 µM (active)
